Data provenance: patent US20240043427A1

Each entry below carries its recorded EC50.
target: CD73 (Homo sapiens (Human), UniProt P21589)
Sequence (P21589 27-574): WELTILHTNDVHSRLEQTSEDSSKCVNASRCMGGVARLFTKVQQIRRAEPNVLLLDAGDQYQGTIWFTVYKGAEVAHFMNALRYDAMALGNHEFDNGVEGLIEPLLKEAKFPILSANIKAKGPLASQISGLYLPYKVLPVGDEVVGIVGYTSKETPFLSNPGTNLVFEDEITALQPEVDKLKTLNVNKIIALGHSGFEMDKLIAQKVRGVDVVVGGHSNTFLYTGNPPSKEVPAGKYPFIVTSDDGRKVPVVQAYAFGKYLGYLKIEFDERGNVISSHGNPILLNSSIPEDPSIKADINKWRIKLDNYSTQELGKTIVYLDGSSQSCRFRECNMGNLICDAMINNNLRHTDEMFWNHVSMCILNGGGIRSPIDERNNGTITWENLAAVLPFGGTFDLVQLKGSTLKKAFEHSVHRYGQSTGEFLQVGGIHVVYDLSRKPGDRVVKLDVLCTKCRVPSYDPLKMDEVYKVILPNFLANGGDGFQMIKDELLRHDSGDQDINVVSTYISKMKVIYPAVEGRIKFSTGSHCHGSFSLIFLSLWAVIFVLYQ
method_summary: MDA-MB-231 Cell Based CD73 Activity Assay (DMEM)
study_conditions: MDA-MB-231-GFP cells, DMEM medium with 10% human plasma, 200 uM AMP
test_readout: EC50 (nM)

[[record]]
compound = "O=c1[nH]cc(-c2cc(NCCc3ccc(F)cc3)c3nccn3n2)c(=O)[nH]1 [Example 496]"
test_readout = "EC50"
assay_value = 154

[[record]]
compound = "O=c1[nH]cc(-c2cc([C@H]3C[C@@H]3c3ccc(C(F)F)cc3)n3nccc3n2)c(=O)[nH]1 [Example 215]"
test_readout = "EC50"
assay_value = 12.1

[[record]]
compound = "N#Cc1cc([C@H]2C[C@@H]2c2cc(-c3c[nH]c(=O)[nH]c3=O)nn3ccnc23)ccc1Cl [Example 553]"
test_readout = "EC50"
assay_value = 6.89

[[record]]
compound = "O=C(Nc1ccccc1F)OC1CN(c2cc(-c3c[nH]c(=O)[nH]c3=O)nn3ccnc23)CC1(F)F (stereo not drawn) [Example 233]"
test_readout = "EC50"
assay_value = 0.8

[[record]]
compound = "O=c1[nH]cc(-c2cc([C@H]3C[C@@H]3c3ccc4cnn(CC(F)F)c4c3)c3nccn3n2)c(=O)[nH]1 [Example 125]"
test_readout = "EC50"
assay_value = 0.17

[[record]]
compound = "O=c1[nH]cc(-c2cc(N3CC[C@H](CC(F)F)C3)c3nccn3n2)c(=O)[nH]1 [Example 454]"
test_readout = "EC50"
assay_value = 50.6

[[record]]
compound = "O=C1N(CC(F)(F)F)c2cc([C@H]3C[C@@H]3c3cc(-c4c[nH]c(=O)[nH]c4=O)nn4ccnc34)ccc2C12CC2 (racemic) [Example 382]"
test_readout = "EC50"
assay_value = 0.13

[[record]]
compound = "CC1(O)CCN(c2cc(-c3c[nH]c(=O)[nH]c3=O)nc3ccnn23)C1 (stereo not drawn) [Example 246]"
test_readout = "EC50"
assay_value = 213

[[record]]
compound = "O=c1[nH]cc(-c2cc(N3CCC4(CC4)C(F)(F)C3)c3nccn3n2)c(=O)[nH]1 [Example 260]"
test_readout = "EC50"
assay_value = 963

[[record]]
compound = "O=c1[nH]cc(-c2cc([C@H]3C[C@@H]3c3ccc4c(C(F)(F)F)ccnc4c3)c3nccn3n2)c(=O)[nH]1 [Example 139]"
test_readout = "EC50"
assay_value = 296

[[record]]
compound = "O=c1[nH]cc(-c2cc(N3CCC(C4CC(F)(F)C4)C3)c3nccn3n2)c(=O)[nH]1 (stereo not drawn) [Example 578]"
test_readout = "EC50"
assay_value = 1870

[[record]]
compound = "O=c1[nH]cc(-c2cc(NCCc3c[nH]c4ccc(Cl)cc34)c3nccn3n2)c(=O)[nH]1 [Example 495]"
test_readout = "EC50"
assay_value = 748

[[record]]
compound = "O=c1[nH]cc(-c2cc(N3CCC4(C3)CC4(F)F)c3nccn3n2)c(=O)[nH]1 (stereo not drawn) [Example 192]"
test_readout = "EC50"
assay_value = 20.9

[[record]]
compound = "O=c1[nH]cc(-c2cc([C@H]3C[C@@H]3c3ccc4ncn(CC(F)(F)F)c4c3)c3nccn3n2)c(=O)[nH]1 [Example 322]"
test_readout = "EC50"
assay_value = 0.07

[[record]]
compound = "N#Cc1ccc([C@H]2C[C@@H]2c2cc(-c3c[nH]c(=O)[nH]c3=O)nn3c(F)cnc23)c(F)c1 [Example 310]"
test_readout = "EC50"
assay_value = 3.4

